Target: T1, RBFOX1 RRM RbFoxmut (Fox-RRM*) (Homo sapiens, UniProt Q9NWB1 109-208, R118D;E147R;N151S;E152T)
T1 sequence: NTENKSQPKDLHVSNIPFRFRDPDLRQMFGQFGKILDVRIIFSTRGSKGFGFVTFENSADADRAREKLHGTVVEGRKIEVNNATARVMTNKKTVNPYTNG
Experiment: EMSA; HiTS-Eq, 1 nM pool, 10 min; buffer printed only for the single-RNA assays: 10 mM Tris pH 7.5, 150 mM NaCl, 3.4 mM EDTA, 0.001% NP-40, 30 C
Settings: tags: His6 N-terminal (pET28a); label: 5' 32P
Over roughly 16,000 sequences, “ka relative to ugcaugu” has its median near 0.096; the highest 2% begin near 0.35. The full list was thinned out, with the highest values kept by preference.

{"columns": ["BINDER", "binding signal"],
 "data": [
  ["UCGCAGA (DNA:RNA) RNA: GGGAGACCGGAAUUCAGAUUGUCCUCGCAGAUUAAAUCCCGUCGUAGCCACCA DNA 1: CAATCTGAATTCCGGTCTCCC DNA 2: TGGTGGCTACGACGGGATT", "0.0842 KA relative to UGCAUGU"],
  ["ACUUACC (DNA:RNA) RNA: GGGAGACCGGAAUUCAGAUUGUCCACUUACCUUAAAUCCCGUCGUAGCCACCA DNA 1: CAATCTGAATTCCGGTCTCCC DNA 2: TGGTGGCTACGACGGGATT", "0.0997 KA relative to UGCAUGU"],
  ["CGUAAUG (DNA:RNA) RNA: GGGAGACCGGAAUUCAGAUUGUCCCGUAAUGUUAAAUCCCGUCGUAGCCACCA DNA 1: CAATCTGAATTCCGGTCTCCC DNA 2: TGGTGGCTACGACGGGATT", "0.157 KA relative to UGCAUGU"],
  ["UGUAUGA (DNA:RNA) RNA: GGGAGACCGGAAUUCAGAUUGUCCUGUAUGAUUAAAUCCCGUCGUAGCCACCA DNA 1: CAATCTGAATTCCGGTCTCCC DNA 2: TGGTGGCTACGACGGGATT", "0.44 KA relative to UGCAUGU"]
]}
